- test.target: 5-HT2A (Homo sapiens)
- Sequence (P28223 whole entry): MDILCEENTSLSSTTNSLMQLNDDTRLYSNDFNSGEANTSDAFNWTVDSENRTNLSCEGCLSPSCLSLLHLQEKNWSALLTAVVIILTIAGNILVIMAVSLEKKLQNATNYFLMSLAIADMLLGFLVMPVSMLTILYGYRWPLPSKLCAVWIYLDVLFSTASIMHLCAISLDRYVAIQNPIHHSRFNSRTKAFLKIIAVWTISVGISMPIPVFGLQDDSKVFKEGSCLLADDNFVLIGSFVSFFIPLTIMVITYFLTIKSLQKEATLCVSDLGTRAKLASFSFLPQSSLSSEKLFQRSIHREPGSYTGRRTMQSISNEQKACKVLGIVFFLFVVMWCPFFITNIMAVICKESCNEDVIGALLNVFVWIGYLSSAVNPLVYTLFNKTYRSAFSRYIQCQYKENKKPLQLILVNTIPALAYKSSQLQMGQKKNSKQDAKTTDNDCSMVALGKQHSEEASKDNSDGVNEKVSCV
- protocol.summary: Serotonin 5-HT2A in vitro cellular IPOne agonism assay (HTRF)
- applied.conditions: CHO-K1 cells, agonist mode
pEC50: −log10 of the molar value.
Provide the recorded pEC50 for the entries that follow.

Exercise: What value of measured pEC50 is listed for CC(Cc1ncc2ccccn12)N1CCCC1 (stereo not shown) [Compound 27] ?
Solution: < 5.00

Exercise: Follow-up item: CC(N)Cc1cnn2ccccc12 (stereo not shown) [Compound 48]
Solution: 5.00 to 6.00

Exercise: Follow-up item: C[C@H](Cc1ncc2ccccn12)N(C)C [Compound 30]
Solution: < 5.00

Exercise: Follow-up item: CC(C)(N)Cc1ncc2ccccn12 [Compound 6]
Solution: < 5.00

Data provenance: patent US20250059184A1
